Collected pIC50 values appear next to each entry.
system: murine splenocytes (BALB/c and DBA/2 mice); test: Mixed lymphocyte reaction (MLR), bi-directional, [3H]-thymidine proliferation; format: cell-based, murine (BALB/c and DBA/2 mice); settings: Mus musculus, Splenocyte, 96 hours
pIC50: −log10 of the molar value.
Endpoint Label: pIC50

O=C1CCC(O)=C1C(=O)Nc1ccc(C(F)(F)F)cc1
5.90
O=C(Nc1ccc(C(F)(F)F)cc1)C1=C(O)COC1=O
5.47
Cc1oncc1C(=O)Nc1ccc(C(F)(F)F)cc1 [Leflunomide]
5.02
O=C1CCCC(O)=C1C(=O)Nc1ccc(C(F)(F)F)cc1
4.34
O=C(Nc1ccc(C(F)(F)F)cc1)c1ccccc1O
5.78
CC(O)=C(C(=O)Nc1ccc(C(F)(F)F)cc1)C(=O)Nc1ccc(C(F)(F)F)cc1
4.92
